# system: FPRL1 (Homo sapiens, UniProt P25090)
# Sequence (P25090 1-351): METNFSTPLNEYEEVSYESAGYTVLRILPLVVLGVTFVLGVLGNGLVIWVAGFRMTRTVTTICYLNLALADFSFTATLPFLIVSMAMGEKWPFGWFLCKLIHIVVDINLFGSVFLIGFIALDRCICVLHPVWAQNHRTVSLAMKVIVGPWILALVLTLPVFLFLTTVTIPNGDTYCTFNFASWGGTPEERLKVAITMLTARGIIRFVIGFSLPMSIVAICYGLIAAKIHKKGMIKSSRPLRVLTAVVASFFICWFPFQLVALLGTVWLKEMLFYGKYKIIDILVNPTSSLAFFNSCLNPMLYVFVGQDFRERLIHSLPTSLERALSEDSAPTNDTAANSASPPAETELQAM
# protocolDescription: Calcium flux in FPRL1-transfected CHO-K1 cells
# Type: cell-based
# Set-up: expressed in transfected cells; host or cells: CHO-K1 (ATCC-CCL-61), transient co-transfection
# conditionDetails: dose response, FPRL1 transfected CHO cells
No end group written: not given here.

[
  {
    "substance": "TIPMFVPESTSKLQKFTSWFM-NH2 [Peptide P58]",
    "calcium flux (P58 family)": "elicited calcium flux"
  },
  {
    "substance": "LQKFTSWFM-amide (LQKFTSWFM-NH2; listed as Homo sapiens) [P58—5]",
    "calcium flux (P58 family)": "elicited calcium flux"
  },
  {
    "substance": "TIPMFVPESTSTLQKFTSWFM-amide (TIPMFVPESTSTLQKFTSWFM-NH2; listed as Homo sapiens) [P58—10]",
    "calcium flux (P58 family)": "elicited calcium flux"
  },
  {
    "substance": "FTSWFM-amide (FTSWFM-NH2; listed as Homo sapiens) [P58—4]",
    "calcium flux (P58 family)": "elicited calcium flux"
  }
]

====

# system: FPRL1 (Homo sapiens)
# protocolDescription: Competitive radioligand binding assay to FPRL1 ([125I] WKYMVm)
# Design: expressed in transfected cells; host or cells: CHO cells
# conditionDetails: 0.025 nM [125I] WKYMVm; CHO transfected cells
No end group written: not given here.
valueType: Ki (µM)
Reply numerically in µM, unit not repeated.

Enquiry: Report measured Ki; entry is TIPMFVPESTSKLQKFTSWFM-NH2 [Peptide P58]
Return: 0.0541
